Tested on: 636577-100-R-J1-PDC complex spheroid viability
Assay: Anticancer human tumor 636577-100-R-J1-PDC patient-derived endometrial adenocarcinoma cell line growth inhibition [GQUAD]
Details: curve of first compound; second compound 0.1 µM

molecule	tgt	IC50
O=c1[nH]cc(F)c(=O)[nH]1 + Cc1cnc(CNC(=O)c2c(=O)c3ccc(N4CCCN(C)CC4)nc3n3c2sc2ccccc23)cn1	636577-100-R-J1-PDC complex spheroid viability	< 31.6 nM
CCCS(=O)(=O)Nc1ccc(F)c(C(=O)c2c[nH]c3ncc(-c4ccc(Cl)cc4)cc23)c1F + Cc1cnc(CNC(=O)c2c(=O)c3ccc(N4CCCN(C)CC4)nc3n3c2sc2ccccc23)cn1	636577-100-R-J1-PDC complex spheroid viability	< 31.6 nM
COc1cccc2c1C(=O)c1c(O)c3c(c(O)c1C2=O)CC(O)(C(=O)CO)CC3OC1CC(N)C(O)C(C)O1 (stereo not drawn) + Cc1cnc(CNC(=O)c2c(=O)c3ccc(N4CCCN(C)CC4)nc3n3c2sc2ccccc23)cn1	636577-100-R-J1-PDC complex spheroid viability	< 31.6 nM

* * *

Listed compounds paired with reported IC50
Test system: 636577-100-R-J1-PDC complex spheroid viability
Assay: Anticancer human tumor 636577-100-R-J1-PDC cell line growth inhibition [GQUAD];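 also: viability read after seven days of drug exposure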
Conditions: curve of first compound; second compound 0.1 µM

compound	IC50
COc1cccc2c1C(=O)c1c(O)c3c(c(O)c1C2=O)CC(O)(C(=O)CO)CC3OC1CC(N)C(O)C(C)O1 (centres undefined) + CN(C)c1ccc(Nc2c3ccc(NC(=O)CCN4CCCC4)cc3nc3cc(NC(=O)CCN4CCCC4)ccc23)cc1	< 31.6 nM
COc1ncnc(C2CC2)c1-c1ncc2cnn(Cc3ccc(-c4nc(C(F)(F)F)cn4C(C)C)cc3)c2n1 + Cc1[nH]c2ccc(F)cc2c1-c1nc2c3cccnc3c3ncccc3c2[nH]1	> 10000 nM
CC(C)(O)C1CCC(Nc2ccc3ncc(-c4cccc(C(F)(F)F)c4)n3n2)CC1 (centres undefined) + Cc1cnc(CNC(=O)c2c(=O)c3ccc(N4CCCN(C)CC4)nc3n3c2sc2ccccc23)cn1	< 31.6 nM
C=CCn1c(=O)c2cnc(Nc3ccc(N4CCN(C)CC4)cc3)nc2n1-c1cccc(C(C)(C)O)n1 + Cc1cnc(CNC(=O)c2c(=O)c3ccc(N4CCCN(C)CC4)nc3n3c2sc2ccccc23)cn1	< 31.6 nM

* * *

Tested on: 636577-100-R-J1-PDC complex spheroid viability
Experiment: Anticancer human tumor 636577-100-R-J1-PDC cell line growth inhibition [GQUAD];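 also: viability read after seven days of drug exposure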
Conditions: curve of first compound; second compound 0.316 µM
attribute-measured: IC50

compound	result-value
COc1ncnc(C2CC2)c1-c1ncc2cnn(Cc3ccc(-c4nc(C(F)(F)F)cn4C(C)C)cc3)c2n1 + CN(C)c1ccc(Nc2c3ccc(NC(=O)CCN4CCCC4)cc3nc3cc(NC(=O)CCN4CCCC4)ccc23)cc1	> 10 µM
Cc1[nH]c2ccccc2c1CCNCc1ccc(/C=C/C(=O)NO)cc1 + Cc1cnc(CNC(=O)c2c(=O)c3ccc(N4CCCN(C)CC4)nc3n3c2sc2ccccc23)cn1	< 0.000999 µM
CC(=O)O[C@H]1C(=O)[C@@]2(C)[C@H]([C@H](OC(=O)c3ccccc3)[C@]3(O)C[C@H](OC(=O)[C@H](O)[C@@H](NC(=O)c4ccccc4)c4ccccc4)C(C)=C1C3(C)C)[C@]1(OC(C)=O)CO[C@@H]1C[C@@H]2O + Cc1cnc(CNC(=O)c2c(=O)c3ccc(N4CCCN(C)CC4)nc3n3c2sc2ccccc23)cn1	< 0.0316 µM
Cc1cccc(N(C)C(=O)C2C(O)CCN2c2nc(C)cc(C(F)(F)F)c2C#N)c1 (centres undefined) + Cc1[nH]c2ccc(F)cc2c1-c1nc2c3cccnc3c3ncccc3c2[nH]1	> 10 µM
